// provenance: paper PMC4885108

assay: Fast PK studies; format: in vivo; conditions: mouse, plasma, iv, 20 mg/kg
quantity.name: clearance at 8 h (mL/min/kg)

{"columns": ["test.smiles", "quantity.name", "recorded.result"],
 "data": [
  ["O=C(O)c1cccc(-n2c(/C=C/c3ccc(F)cc3)nc3ccccc3c2=O)c1", "clearance at 8 h", 7.8]
]}

* * *

assay: Fast PK studies; format: in vivo; details: mouse, plasma, iv, 5 mg/kg
The entries below are paired with their reported clearance at 8 h.

{"columns": ["compound", "unit.descriptor", "clearance at 8 h"],
 "data": [
  ["O=c1c2ccccc2nc(/C=C/c2ccc(F)cc2)n1-c1cccc(O)c1 [Compound 5]", "mL/min/kg", 10.7],
  ["CC(=O)Nc1cccc(-n2c(/C=C/c3ccc(C#N)cc3)nc3ccccc3c2=O)c1 [Compound 52]", "mL/min/kg", 131],
  ["CS(=O)(=O)Nc1cccc(-n2c(/C=C/c3ccc(C#N)cc3)nc3ccccc3c2=O)c1 [Compound 54]", "mL/min/kg", 162],
  ["N#Cc1ccc(/C=C/c2nc3ccccc3c(=O)n2-c2cccc(O)c2)cc1 [Compound 15]", "mL/min/kg", 186]
]}

* * *

assay: Fast PK studies; assay type: in vivo; conditions: mouse, plasma, iv, 5 mg/kg

{"columns": ["compound", "clearance (L/h/kg)"],
 "data": [
  ["O=c1c2ccccc2nc(/C=C/c2ccc(F)cc2)n1-c1cccc(O)c1 [Compound 5]", 0.66]
]}

* * *

experiment: Fast PK studies; assay type: in vivo; settings: mouse, plasma, iv, 10 mg/kg

{"columns": ["test.smiles", "clearance (mL/min/kg)"],
 "data": [
  ["CC(=O)Nc1cccc(-n2c(/C=C/c3ccc(F)cc3)nc3ccccc3c2=O)c1", 88],
  ["C#Cc1ccc(/C=C/c2nc3ccccc3c(=O)n2-c2cccc(C(=O)O)c2)cc1", 6.4],
  ["CS(=O)(=O)Nc1cccc(-n2c(/C=C/c3ccc(F)cc3)nc3ccccc3c2=O)c1", 28]
]}

* * *

assay: Fast PK studies; format: in vivo; conditions: mouse, plasma, iv, 10 mg/kg
The entries below are paired with their reported clearance at 8 h.
quantity.name: clearance at 8 h

{"columns": ["test.smiles", "quantity.name", "recorded.result"],
 "data": [
  ["N#Cc1ccc(/C=C/c2nc3ccccc3c(=O)n2-c2cccc(C(=O)NCCO)c2)cc1", "clearance at 8 h", "29 mL/min/kg"],
  ["N#Cc1ccc(/C=C/c2nc3ccccc3c(=O)n2-c2cccc(N)c2)cc1", "clearance at 8 h", "25 mL/min/kg"],
  ["CC(=O)NCc1cccc(-n2c(/C=C/c3ccc(C#N)cc3)nc3ccccc3c2=O)c1", "clearance at 8 h", "35 mL/min/kg"]
]}
